List of pKd values.
- system: T1, EsCas13d, nuclease-dead (Eubacterium siraeum, UniProt B0MS50, R295A;H300A;R849A;H854A)
- T1 sequence: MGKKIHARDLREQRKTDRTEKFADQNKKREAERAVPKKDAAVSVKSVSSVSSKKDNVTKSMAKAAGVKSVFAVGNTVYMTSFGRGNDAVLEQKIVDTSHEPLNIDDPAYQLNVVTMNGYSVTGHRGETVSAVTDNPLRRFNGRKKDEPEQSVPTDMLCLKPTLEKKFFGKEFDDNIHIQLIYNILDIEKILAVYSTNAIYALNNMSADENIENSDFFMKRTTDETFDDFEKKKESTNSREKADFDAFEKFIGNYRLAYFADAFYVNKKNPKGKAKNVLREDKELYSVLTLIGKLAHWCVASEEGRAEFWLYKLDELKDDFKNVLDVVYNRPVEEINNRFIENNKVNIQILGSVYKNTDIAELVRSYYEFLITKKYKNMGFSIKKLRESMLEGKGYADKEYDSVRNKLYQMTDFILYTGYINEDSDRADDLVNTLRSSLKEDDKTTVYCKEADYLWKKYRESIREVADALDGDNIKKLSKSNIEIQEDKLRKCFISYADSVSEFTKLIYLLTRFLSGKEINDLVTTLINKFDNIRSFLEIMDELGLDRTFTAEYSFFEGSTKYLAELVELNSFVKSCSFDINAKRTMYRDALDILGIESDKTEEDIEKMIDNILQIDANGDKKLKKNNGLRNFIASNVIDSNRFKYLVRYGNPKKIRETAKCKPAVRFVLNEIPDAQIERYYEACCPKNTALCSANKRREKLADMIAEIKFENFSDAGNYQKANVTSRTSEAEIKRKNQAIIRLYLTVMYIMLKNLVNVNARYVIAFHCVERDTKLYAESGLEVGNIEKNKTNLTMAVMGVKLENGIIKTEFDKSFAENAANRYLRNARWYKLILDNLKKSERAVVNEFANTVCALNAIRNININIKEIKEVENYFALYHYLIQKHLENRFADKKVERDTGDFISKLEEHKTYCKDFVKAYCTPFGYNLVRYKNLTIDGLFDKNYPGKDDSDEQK
- assay text: crRNA (strand 1, pre-loaded); Mg2+; 40 mM Tris-HCl pH 7.5, 150 mM NaCl, 6 mM MgCl2, 1 mM DTT, 0.1% Tween-20, 0.2 mg/ml BSA; 25 C; 10 min per concentration, then washed
- measurement context: tags: His6-TwinStrep-SUMO cleaved; N-terminal SNAP kept (SNAP-Surface 488); label: 3' end held by stalled T7 RNA polymerase
Convention used: pKd is expressed as -log10 of the molar concentration.

- target 1 del2,del15 (mixed) RNA 1: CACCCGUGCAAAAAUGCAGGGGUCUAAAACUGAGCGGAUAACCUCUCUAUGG RNA 2: GGGAAUGGAUCCACAUCUACGAAUUCGUACCAUAGAAGGUUAUCCGCUACCGAGAUCGGAAGAGCACACGU: 7.38

q: Reported pKd for target 2 MT 5'PFS UUG 3'PFS AAC (mixed) RNA 1: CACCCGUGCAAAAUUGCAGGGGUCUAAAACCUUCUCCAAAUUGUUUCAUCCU RNA 2: GGGAAUGGAUCCACAUCUACGAAUUCUUGAGGAUGAAACAAUUUGGAGAAGAACAGAUCGGAAGAGCACACGU : what is it?
a: 8.01

q: Reported pKd for target 1 insU 3' of 22,insA 3' of 22 (mixed) RNA 1: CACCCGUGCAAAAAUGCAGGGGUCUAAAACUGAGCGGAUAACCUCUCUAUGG RNA 2: GGGAAUGGAUCCACAUCUACGAAUUCGUACUACAUAGAGAGGUUAUCCGCUCACCGAGAUCGGAAGAGCACACGU : what is it?
a: 8.39

q: Reported pKd for target 1 complement block 7-13 (mixed) RNA 1: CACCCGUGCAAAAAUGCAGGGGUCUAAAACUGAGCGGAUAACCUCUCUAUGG RNA 2: GGGAAUGGAUCCACAUCUACGAAUUCGUACCAUAGAGACCAAUAGCGCUCACCGAGAUCGGAAGAGCACACGU : what is it?
a: 7.10

q: Reported pKd for target 2 MT 5'PFS GGC 3'PFS CGG (mixed) RNA 1: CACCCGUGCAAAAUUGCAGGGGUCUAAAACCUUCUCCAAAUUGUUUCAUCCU RNA 2: GGGAAUGGAUCCACAUCUACGAAUUCGGCAGGAUGAAACAAUUUGGAGAAGCGGAGAUCGGAAGAGCACACGU : what is it?
a: 7.85
